# test-target: S1
# method-summary: BLI
quantity-kind: pKd
To interpret pKd, take it as minus log10 of a concentration measured in moles per litre.

Sample answers from the record:
{"binder": "Ab 18 (scFv, V domains shown) VH: EVQLVQSGGGVVQPGRSLRVSCAASGFSFSRYGMHWVRQAPGKGLEWVAFIRHDGSKKYYADSVEGRFTISRDNSRNTVSLEMNSLRGEDTAVYYCAKDGRLEAALDDWGQGTLVTVSS VL: NFMLTQPHSMSGSAGKTVTVSCIRSSGSIANNFVQWYQQRPGSAPTTVIYEDNQRPSGVPDRFSGSIDSSSNSASLTISGLKTEDEADYYCQSYDSSNLVFGGGTRLTVL", "pKd": 9.92}
{"binder": "Ab 37 (scFv, V domains shown) VH: QVQLVQSGAEVKKPGASVKVSCKASGYTFTSYGISWVRQAPGQGLEWMGWISTYNGNTNYAQKLQGRVTMTTDTSTSTAYMEVRSLRSDDTAVYYCARDVFGHFDYWGQGTLVTVSS VL: NFMLTQPHSVSESPGKTVLISCTRSSGNIATNYVQWYQQRPGSAPTTVIYEDNQRPSGVPDRFSGSIDSSSNSASLTISGLKTEDEADYYCKSYDDGNHVFGGGTKLTVL", "pKd": 9.04}
{"binder": "Ab 38 (scFv, V domains shown) VH: QVTLKESGPTLVKPTQTLTLTCTFSGFSLTTSGVSVGWIRQPPGKALEWLALIHWDDDKRYSPSLRSRLTITRDTSKNQVVLTVTDMDPADTGTYYCASFIMTVYAEYFEDWGQGTLVTVSS VL: EIVLTQSPATLSVSPGERATLSCRASQSVSSNLAWYQQKPGQAPRLLMYDVSTRATGIPARFSGSGSGTEFSLTISSLQSEDFAVYYCQQRGAWPLTFGGGTKVEIK", "pKd": 9.66}

Fill in the blank: the reported pKd of Ab 17 (scFv, V domains shown) VH: QVQLVQSGGGVVQPGRSLRLSCAASGFTFDDYAMHWVRQVPGKGLEWVSGIDWNSGVIGYADSVKGRFTISRDNVKNSLYLQMNSLRTEDSALYYCAKDIGPGGSGSYYAFDIWGQGTTVTVSS VL: QSALTQPASVSGSPGQSITISCTGTSSDVGGSKYVSWYQQHPGKAPKVMIYDVTKRPSGVPDRFSGSKSGNTASLTISGLQAEDEADYYCAAWDDSLNGVVFGGGTKLTVL is ____.
9.15

Quick one: Ab 8 (scFv, V domains shown) VH: QVQLVQSGAEVKKPGSSVKVSCKASGGTFSSYAISWLRQAPGQGLEWMGWINPNSGGTNYAQKFQGRVTMTRDTSISTAYMELSRLRSDDTAVYYCARGSGGYYLGWGQGTLVTVSS VL: QPGLTQPPSVSKGLRQTATLTCTGNSNNVGNQGAAWLQQHQGHPPKLLSYMNNNRPPGISERFSASRSGNTASLTITGLQPEDEADYYCSAWDSSLSRWVFGGGTKLSVL
6.49
